Quick reference: residual activity of the listed items.
# Target Or Test System: MAPK11 (human) (UniProt Q15759)
# Sequence (Q15759 whole entry, looked up): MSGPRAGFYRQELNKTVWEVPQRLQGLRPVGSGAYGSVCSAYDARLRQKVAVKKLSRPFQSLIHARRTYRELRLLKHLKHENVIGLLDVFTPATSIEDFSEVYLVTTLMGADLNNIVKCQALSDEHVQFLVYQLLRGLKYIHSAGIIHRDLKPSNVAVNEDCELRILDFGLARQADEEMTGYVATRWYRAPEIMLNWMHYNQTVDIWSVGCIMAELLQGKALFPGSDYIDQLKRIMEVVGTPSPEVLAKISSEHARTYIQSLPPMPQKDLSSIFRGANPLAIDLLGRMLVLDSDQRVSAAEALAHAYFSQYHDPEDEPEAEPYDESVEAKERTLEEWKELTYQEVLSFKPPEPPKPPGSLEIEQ
# Run Description: radiometric filter-binding kinase assay, Kinase HotSpot
# Recorded Conditions: compound 0.5 µM; ATP 10 µM
// units = %; emit number, no label

Before answering, review these 3 worked examples.
INSERT INTO measurements (structure, observed_measurement) VALUES
  ('c1ccc2c(-c3ccncc3)c[nH]c2c1', 112),
  ('COc1cc(Nc2c(C#N)cnc3cc(OCCCN4CCN(C)CC4)c(OC)cc23)c(Cl)cc1Cl', 101),
  ('Cc1cncc2cccc(S(=O)(=O)N3CCCN(C(=O)CN)C[C@H]3C)c12', 101);

If you can, please state the reported residual activity value of `CS(=O)(=O)CCNCc1ccc(-c2ccc3ncnc(Nc4ccc(OCc5cccc(F)c5)c(Cl)c4)c3c2)o1` .
101

Name the reported residual activity value associated with the molecule `CN(C)c1ccc(/C=C2\C(=O)Nc3ccccc32)cc1`
93.5

Which residual activity value belongs to `O=C1c2ccccc2-c2nc3nnnn3nc21` ?
101

Which value of residual activity has been reported for `Cn1c2ccccc2c2c3c(c4c5ccccc5n(CCC#N)c4c21)CNC3=O` in the records?
99.5

What value of residual activity has been reported for the following molecule? `CN(C)CCCn1cc(C2=C(c3c[nH]c4ccccc34)C(=O)NC2=O)c2ccccc21`
96.1

What measured residual activity goes with `O=C1Nc2ccc(Br)cc2/C1=C\c1cc2c([nH]1)CCCC2` ?
96.8

###

# Target Or Test System: CDC42BPB (human)
# Run Description: radiometric filter-binding kinase assay, Kinase HotSpot
# Recorded Conditions: compound 0.5 µM; ATP 10 µM
Endpoint: residual activity (%)
# value in %; strip the unit string

Observe how each entry below is paired with its result.
INSERT INTO results (structure, observed_measurement) VALUES
  ('COc1ccc(S(=O)(=O)N(CCO)c2ccccc2CN(C)C/C=C/c2ccc(Cl)cc2)cc1', 101),
  ('COc1cc2ncnc(Nc3ccc(Oc4ccccc4)cc3)c2cc1OC', 106),
  ('CN(C)c1ccc(/C=C2\C(=O)Nc3ccccc32)cc1', 89.5);

Then this molecule:
Consider the molecule shown here: `O=C1c2ccccc2-c2nc3nnnn3nc21` What is its recorded residual activity?
82.6

###

Entries and their residual activity
# Target Or Test System: CDK9 CCNK (human) (UniProt O75909+P50750)
# Sequence (O75909 whole entry, looked up): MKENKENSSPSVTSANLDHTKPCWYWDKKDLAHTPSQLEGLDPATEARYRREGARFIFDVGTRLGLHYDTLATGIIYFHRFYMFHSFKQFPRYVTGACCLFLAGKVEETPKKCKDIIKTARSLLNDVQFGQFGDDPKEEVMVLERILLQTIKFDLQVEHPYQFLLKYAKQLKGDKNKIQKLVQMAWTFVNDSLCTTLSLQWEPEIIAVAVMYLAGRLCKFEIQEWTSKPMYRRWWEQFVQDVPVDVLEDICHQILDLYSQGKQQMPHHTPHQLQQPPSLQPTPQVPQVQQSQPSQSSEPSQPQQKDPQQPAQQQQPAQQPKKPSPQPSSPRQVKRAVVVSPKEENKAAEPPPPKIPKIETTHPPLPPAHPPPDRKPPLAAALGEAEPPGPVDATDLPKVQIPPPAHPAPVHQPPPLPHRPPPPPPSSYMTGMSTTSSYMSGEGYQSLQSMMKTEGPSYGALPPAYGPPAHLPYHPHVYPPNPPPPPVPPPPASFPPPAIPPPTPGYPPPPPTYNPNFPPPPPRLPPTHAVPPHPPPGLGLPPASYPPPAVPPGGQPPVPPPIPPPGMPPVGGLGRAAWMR
# Sequence (P50750 whole entry, looked up): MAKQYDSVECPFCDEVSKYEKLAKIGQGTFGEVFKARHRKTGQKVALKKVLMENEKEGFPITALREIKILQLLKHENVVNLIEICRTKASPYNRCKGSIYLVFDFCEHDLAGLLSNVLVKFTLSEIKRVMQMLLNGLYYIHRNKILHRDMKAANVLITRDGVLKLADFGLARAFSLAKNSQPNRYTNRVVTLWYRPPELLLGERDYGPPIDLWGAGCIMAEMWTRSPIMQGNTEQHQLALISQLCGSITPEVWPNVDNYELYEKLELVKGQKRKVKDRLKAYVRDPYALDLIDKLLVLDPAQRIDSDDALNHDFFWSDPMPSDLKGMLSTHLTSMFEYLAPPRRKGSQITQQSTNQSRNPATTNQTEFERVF
# Run Description: radiometric filter-binding kinase assay, Kinase HotSpot
# Recorded Conditions: compound 0.5 µM; ATP 10 µM
Express it in %; write the number only.

Worked cases, residual activity given:
INSERT INTO results (structure, endpoint, observed_measurement) VALUES
  ('O=C1C(Cl)=C(N2C(=O)CCC2=O)C(=O)c2ccccc21', 'residual activity', 97.2),
  ('N#Cc1c[nH]c2c[nH]/c(=N\Cc3cccnc3)cc2/c1=N\c1ccc(F)c(Cl)c1', 'residual activity', 97.3),
  ('NCCNc1ncc(C(N)=O)c(Nc2cccc(C(F)(F)F)c2)n1', 'residual activity', 95.6);

What value of residual activity has been reported for the following compound? `COc1ccc(Cl)cc1NC(=O)Nc1cc(C)nc2ccccc12`
95.9

What value of residual activity has been reported for the following compound? `O=C1c2ccccc2-c2nc3nnnn3nc21`
74.4

May I ask what residual activity has been recorded for `COc1cc(Nc2c(C#N)cnc3cc(OCCCN4CCN(C)CC4)c(OC)cc23)c(Cl)cc1Cl` ?
102

Which residual activity value is on record for `CN(C)S(=O)(=O)c1ccc2c(c1)/C(=C/c1cc3c([nH]1)CCCC3)C(=O)N2` ?
96.9

Given `O=C1Nc2ccc(Br)cc2/C1=C\c1cc2c([nH]1)CCCC2` , state its recorded residual activity.
96.7

###

# Target Or Test System: MAP3K9 (human)
# Run Description: radiometric filter-binding kinase assay, Kinase HotSpot
# Recorded Conditions: compound 0.5 µM; ATP 10 µM
Assign class by residual activity: not lower than 90% means fulfilled; lower than 90% means not fulfilled.

As a guide, the following entries are already answered.
INSERT INTO assay_data (structure, category) VALUES
  ('COc1ccc(Cl)cc1NC(=O)Nc1cc(C)nc2ccccc12', 'fulfilled'),
  ('COc1cc2ncnc(Nc3ccc(Oc4ccccc4)cc3)c2cc1OC', 'not fulfilled'),
  ('O=C1NC(=O)c2c1c1c3ccccc3[nH]c1n1cncc21', 'not fulfilled');

Determine whether measured residual activity meets or exceeds 90% for `Ic1cccc(CSc2nnc(-c3ccncc3)o2)c1`
fulfilled

Given `CN(C)S(=O)(=O)c1ccc2c(c1)/C(=C/c1cc3c([nH]1)CCCC3)C(=O)N2` , state whether its residual activity is at least 90%.
not fulfilled

###

# Target Or Test System: PDPK1 (human)
# Run Description: radiometric filter-binding kinase assay, Kinase HotSpot
# Recorded Conditions: compound 0.5 µM; ATP 10 µM
Entries and their measured residual activity follow.
The reply should be a number in %, with the unit left off.

The following molecules have reported results that may help.
INSERT INTO assay_data (structure, target_or_test_system, observed_measurement) VALUES
  ('COc1ccc(Cl)cc1NC(=O)Nc1cc(C)nc2ccccc12', 'PDPK1 (human)', 83.9),
  ('O=C(c1cc2cc(O)ccc2[nH]1)c1cc2cc(O)ccc2[nH]1', 'PDPK1 (human)', 97.2),
  ('Cc1cccc(-c2nc(C(C)(C)C)[nH]c2-c2ccc3c(c2)OCO3)n1', 'PDPK1 (human)', 89.8),
  ('Cc1nc(-c2ccccc2)c(-c2ccncc2)o1', 'PDPK1 (human)', 96.9),
  ('CCCCc1c(-c2ccc(OC)cc2)[nH]c2nccnc12', 'PDPK1 (human)', 102),
  ('NC(=O)c1cccc(-c2cc(Nc3ccc(OC(F)(F)F)cc3)ncn2)c1', 'PDPK1 (human)', 98.3),
  ('COc1ccc2c(c1)/C(=C/c1cnc[nH]1)C(O)=N2', 'PDPK1 (human)', 97.8),
  ('O=C1c2ccccc2-c2nc3nnnn3nc21', 'PDPK1 (human)', 79);

Return reported residual activity; argument: `N#C/C(=C\c1ccc(O)c(O)c1)C(=O)NCc1ccccc1`
74

Which measured residual activity value corresponds to `COc1ccc(S(=O)(=O)N(CCO)c2ccccc2CN(C)C/C=C/c2ccc(Cl)cc2)cc1` ?
93.7

Name the reported residual activity value associated with the molecule `COc1cc2ncnc(Nc3ccc(Oc4ccccc4)cc3)c2cc1OC`
111

###

# Target Or Test System: PRKCI (human)
# Run Description: radiometric filter-binding kinase assay, Kinase HotSpot
# Recorded Conditions: compound 0.5 µM; ATP 10 µM
Reported residual activity values follow for various compounds
Give the value, in units of %, as a plain number.

// solved cases for residual activity follow
INSERT INTO results (structure, observed_measurement) VALUES
  ('c1ccc2c(-c3ccncc3)c[nH]c2c1', 82.4),
  ('Ic1cccc(CSc2nnc(-c3ccncc3)o2)c1', 96.4),
  ('Cc1cncc2cccc(S(=O)(=O)N3CCCN(C(=O)CN)C[C@H]3C)c12', 87.4),
  ('COc1ccc(C(=O)Nc2sc3c(c2C(N)=O)CCCC3)cc1OC', 91.8),
  ('COc1ccc(Cl)cc1NC(=O)Nc1cc(C)nc2ccccc12', 99.4);

# lookup: residual activity of `COc1cc2ncnc(Nc3ccc(Oc4ccccc4)cc3)c2cc1OC`
108

Item `O=C1C(Cl)=C(N2C(=O)CCC2=O)C(=O)c2ccccc21` has what recorded residual activity?
96.6

For `O=C1c2ccccc2-c2nc3nnnn3nc21` , what is its reported residual activity?
85.7

What value of measured residual activity is listed for `CN(C)CCCn1cc(C2=C(c3c[nH]c4ccccc34)C(=O)NC2=O)c2ccccc21` ?
55.9

For the compound `Cc1nc(-c2ccccc2)c(-c2ccncc2)o1` , what residual activity is on record?
101

Bench note: what residual activity did `COc1cc2ncnc(Nc3ccc(OCc4ccccc4)cc3)c2cc1OC` show?
101

What measured residual activity goes with `Fc1ccc(-c2nc3n(c2-c2ccncc2)CCS3)cc1` ?
90.9

###

# Target Or Test System: MAP3K10 (human) (UniProt Q02779)
# Sequence (Q02779 whole entry, looked up): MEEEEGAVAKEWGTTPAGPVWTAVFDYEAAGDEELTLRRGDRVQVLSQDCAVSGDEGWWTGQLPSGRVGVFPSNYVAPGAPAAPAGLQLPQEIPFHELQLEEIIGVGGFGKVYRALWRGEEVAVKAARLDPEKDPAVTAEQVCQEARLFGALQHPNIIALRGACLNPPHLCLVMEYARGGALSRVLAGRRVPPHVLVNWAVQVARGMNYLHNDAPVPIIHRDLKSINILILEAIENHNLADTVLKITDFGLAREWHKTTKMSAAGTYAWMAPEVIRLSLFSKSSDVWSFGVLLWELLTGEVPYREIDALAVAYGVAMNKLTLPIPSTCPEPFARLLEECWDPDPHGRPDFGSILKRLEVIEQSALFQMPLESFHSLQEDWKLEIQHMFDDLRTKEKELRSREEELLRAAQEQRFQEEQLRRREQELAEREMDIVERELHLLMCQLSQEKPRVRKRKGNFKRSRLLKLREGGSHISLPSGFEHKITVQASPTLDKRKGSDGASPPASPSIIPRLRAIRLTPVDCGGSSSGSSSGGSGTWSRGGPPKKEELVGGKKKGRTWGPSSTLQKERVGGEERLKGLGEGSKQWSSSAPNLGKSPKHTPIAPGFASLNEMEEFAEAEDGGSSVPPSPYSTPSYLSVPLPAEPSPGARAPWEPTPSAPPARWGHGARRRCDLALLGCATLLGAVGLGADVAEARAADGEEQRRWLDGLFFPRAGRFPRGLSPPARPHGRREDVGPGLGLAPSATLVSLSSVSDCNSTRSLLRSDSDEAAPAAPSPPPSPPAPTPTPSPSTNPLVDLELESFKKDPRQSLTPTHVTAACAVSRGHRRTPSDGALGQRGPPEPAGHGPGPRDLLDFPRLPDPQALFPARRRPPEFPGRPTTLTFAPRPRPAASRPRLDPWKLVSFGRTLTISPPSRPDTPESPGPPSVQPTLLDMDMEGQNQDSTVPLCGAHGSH
# Run Description: radiometric filter-binding kinase assay, Kinase HotSpot
# Recorded Conditions: compound 0.5 µM; ATP 10 µM
Attribute: residual activity
State the answer as a number, implicitly in %.

Here is how some molecules turned out for residual activity.
INSERT INTO measurements (structure, target_or_test_system, observed_measurement) VALUES
  ('CN(C)c1ccc(/C=C2\C(=O)Nc3ccccc32)cc1', 'MAP3K10 (human) (UniProt Q02779)', 96.6),
  ('CN(C)CCCn1cc(C2=C(c3c[nH]c4ccccc34)C(=O)NC2=O)c2ccccc21', 'MAP3K10 (human) (UniProt Q02779)', 81.8);

Given the molecule `c1ccc2c(-c3ccncc3)c[nH]c2c1` , what is its reported residual activity?
101

What residual activity value was documented for this molecule, `CCCCc1c(-c2ccc(OC)cc2)[nH]c2nccnc12` ?
82.7

So what does the record say about residual activity for `Fc1ccc(-c2nc3n(c2-c2ccncc2)CCS3)cc1` ?
101

Which residual activity is listed for `Ic1cccc(CSc2nnc(-c3ccncc3)o2)c1` ?
102

Form field: reported residual activity of `COc1ccc2c(c1)c(C1=C(c3c[nH]c4ccccc34)C(=O)NC1=O)cn2CCCN(C)C`
83.4

Field request: residual activity | item: `COc1cc(Nc2c(C#N)cnc3cc(OCCCN4CCN(C)CC4)c(OC)cc23)c(Cl)cc1Cl`
22.9

What measured residual activity goes with `Cc1cncc2cccc(S(=O)(=O)N3CCCN(C(=O)CN)C[C@H]3C)c12` ?
105
